# Test system: Schistosoma mansoni
# protocol-notes: High throughput screening of compounds against Schistosoma mansoni motility
# Type: functional
# Set-up: dose or concentration left out as unconfirmed
measured-parameter: Percent Effect

For the compound shown here, CCCc1n[nH]c(C2CN(CCn3cccn3)CCO2)n1 (configuration not stated) , give the reported Percent Effect. 4.257%

---

# protocol-notes: microbe, parasite or virus in culture
# particulars: Mycobacterium tuberculosis, 96 h, read-out: pIC50 (converted)
Entries and their IC50

Recorded IC50, per entry:
| compound | IC50 |
| --- | --- |
| O=c1c2sccc2nc2n1CCN(Cc1cc(F)ccc1F)CC2 | > 50.1 µM |
| NC1(c2nc(C3CC3)cc(=O)[nH]2)CCCC1 | > 501 µM |
| Cc1nc(CN(C)CC2CCCN2c2cccnn2)nc2ccccc12 (stereo not drawn) | > 50.1 µM |
| Cc1ccccc1-n1nnnc1SCC(=O)NC1CC1 | > 501 µM |

Now look at this entry.
What measured IC50 goes with CC(NC(=O)CNc1cc(F)cc(Br)c1)C(=O)N(C)C (stereo not drawn) ? > 501 µM

Source of measurements: ChEMBL document CHEMBL3988442
